SYSTEM: T1, huNectin4-His (human, UniProt Q96NY8 32-349)
T1 construct: Immobilized on the SPR chip; also called humanNectin4; human Nectin4; not shown: His tag
T1 sequence (looked up): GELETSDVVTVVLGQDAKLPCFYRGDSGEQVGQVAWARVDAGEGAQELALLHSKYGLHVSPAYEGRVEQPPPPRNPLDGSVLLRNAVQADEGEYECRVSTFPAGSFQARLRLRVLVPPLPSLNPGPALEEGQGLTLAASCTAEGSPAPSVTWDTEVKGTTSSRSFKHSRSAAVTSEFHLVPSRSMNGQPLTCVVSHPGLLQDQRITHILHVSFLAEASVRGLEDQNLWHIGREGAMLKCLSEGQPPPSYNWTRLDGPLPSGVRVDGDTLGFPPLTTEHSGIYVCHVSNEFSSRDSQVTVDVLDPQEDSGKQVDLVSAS
PROTOCOL DETAILS: SPR, huNectin4-His immobilized, pH 6.5
QUANTITY MEASURED: kon (M⁻¹ s⁻¹)
Number only, in M⁻¹ s⁻¹; omit the unit.

[[record]]
binder = "BAP-143-00-03 (antibody, V domains shown, Used as a conjugate with a linker payload (CAB ADC)) VH: EVQLVESGGGLVQPGGSLRLSCAASGFTFSSYNMNWVRQAPGKGLEWVSYISSSSSTIYYADSVKGRFTISRDNAKNSLSLQMNSLRDEDTAVYYCARAYYYGMDVWGQGTTVTVSS VL: DIQMTQSPSSVSASVGDRVTITCRASQGISGWLAWYQQKPGKAPKFLIYAASTLQSGVPSRFSGSGSGTDFTLTISSLQPEDFATYYCQQANSFPDTFGGGTKVEIK"
value_unit = "M⁻¹ s⁻¹"
endpoint_value = 771000

[[record]]
binder = "BAP-143-00-05 (antibody, V domains shown, Used as a conjugate with a linker payload (CAB ADC)) VH: EVQLVESGGGLVQPGGSLRLSCAASGFTFSSYNMNWVRQAPGKGLEWVSYISSSSSTIYYADSVKGRFTISRDNAKNSLSLQMNSLRDEDTAVYYCAEAYYYGMDVWGQGTTVTVSS VL: DIQMTQSPSSVSASVGDRVTITCRASQGISGWLAWYQQKPGKAPKFLIYAASTLQSGVPSRFSGSGSGTDFTLTISSLQPEDFATYYCQQANSFPPTFGGGTKVEIK"
value_unit = "M⁻¹ s⁻¹"
endpoint_value = 726000

[[record]]
binder = "BAP-143-00-04 (antibody, V domains shown, Used as a conjugate with a linker payload (CAB ADC)) VH: EVQLVESGGGLVQPGGSLRLSCAASGFTFSSYNDNWVRQAPGKGLEWVSYISSSSSTIYYADSVKGRFTISRDNAKNSLSLQMNSLRDEDTAVYYCARAYYYGMDVWGQGTTVTVSS VL: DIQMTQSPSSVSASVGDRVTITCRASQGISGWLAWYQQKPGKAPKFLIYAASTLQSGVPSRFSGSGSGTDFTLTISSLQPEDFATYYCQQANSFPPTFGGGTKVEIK"
value_unit = "M⁻¹ s⁻¹"
endpoint_value = "2.94e+06"

[[record]]
binder = "BAP-143-00-01 (antibody, V domains shown, Used as a conjugate with a linker payload (CAB ADC)) VH: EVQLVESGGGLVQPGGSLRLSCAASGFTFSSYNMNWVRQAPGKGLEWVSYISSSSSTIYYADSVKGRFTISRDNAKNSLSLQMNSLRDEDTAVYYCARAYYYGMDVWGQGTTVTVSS VL: DIQMTQSPSSVSASVGDRVTITCRASQGISGWEAWYQQKPGKAPKFLIYAASTLQSGVPSRFSGSGSGTDFTLTISSLQPEDFATYYCQQANSFPPTFGGGTKVEIK"
value_unit = "M⁻¹ s⁻¹"
endpoint_value = 476000


Could you now consider this next binder?
[Q] Give the reported value of kon for this record: BAP-143-00-06 (antibody, V domains shown, Used as a conjugate with a linker payload (CAB ADC)) VH: EVQLVESGGGLVQPGGSLRLSCAASGFTFSSYNMNWVRQAPGKGLEWVSYISSSSSTIYYADSVKGRFTISRDNAKNSLSLQMNSLRDEDTAVYYCARAYYYGDDVWGQGTTVTVSS VL: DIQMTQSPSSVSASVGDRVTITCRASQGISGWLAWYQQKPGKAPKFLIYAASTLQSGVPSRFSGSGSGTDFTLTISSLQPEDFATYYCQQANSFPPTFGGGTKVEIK
[A] 3.3e+06
